Catalogue of compounds with associated z-score
# Protocol Notes: growth of efflux-deficient E. coli DRC39 – strain DRC39, OD650, 48 h, E. coli filamentation inducers, primary screen (AID 1179);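 note: screen aims at cell division blockers that make cells filament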
# Details: E. coli DRC39 delta-acrAB growth, higher = more signal, called active from +8 up or from −8 down
Active and inactive are the calls of the source.

Task: // query z-score value for entry O=C1CSC(c2cccc([N+](=O)[O-])c2)N1c1ccccc1 (centres undefined)
Result: 0.869 (inactive)

---

# Protocol Notes: probe aWnt5a binding to arrayed compounds – biochemical, biotinylated probe, 635/667 nm fluorescence, primary screen (AID 1113);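 note: score merges 667 nm fluorescence intensity with signal-to-noise per printed feature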
# Details: small-molecule microarray, higher = more signal
Readout: composite z-score
Could you respond with only the numeric value?

Below, 5 compounds whose answers are already recorded.
Compound	Readout Number
O=C1O[C@H](c2ccccc2)[C@H](c2ccccc2)N2[C@H]1[C@@H](C(=O)N1CCCCCCC1)[C@]1(C(=O)Nc3ccccc31)[C@H]2c1ccc(O)cc1	1.63
COC(=O)C(CC#Cc1ccc2c(c1)[C@]1(C(=O)N2)[C@H](C(=O)N2CCc3cc(OC)c(OC)cc3C2)[C@H]2C(=O)O[C@H](c3ccccc3)[C@H](c3ccccc3)N2[C@@H]1c1ccc(O)cc1)C(=O)OC	-0.0303
COC(=O)[C@@]1(Cc2ccccc2)[C@H]2c3cc(C(=O)N4CCCC4)n(Cc4ccc(OC(F)(F)F)cc4)c3C[C@H]2CN1C(=O)c1ccccc1	0.583
CCCCC(CC)C(O)C1C=CC2C(=O)NC(=O)C2N1Nc1ccccn1 (stereo not drawn)	0.0919
CO[C@H]1O[C@H](CO)[C@@H](OC(=O)c2ccc(Br)cc2)[C@@H]2OC(=O)[C@H](Cc3cccc(Br)c3)C/C=C/C[C@@H](Cc3cccc(Br)c3)C(=O)O[C@@H]12	-0.113

Task: // query composite z-score value for entry "COC(=O)[C@@]1(Cc2ccccc2)[C@H]2c3cc(C(=O)N4CCCC4)n(CCO)c3C[C@H]2CN1C(=O)c1ccccc1"
Result: 0.853

Task: // query composite z-score value for entry "CC(C)C[C@@H]1NC(=O)[C@@H]2C[C@H](C(=O)NCc3ccc(F)cc3)[C@H](c3ccc(O)cc3)N2C1=O"
Result: -0.147

Task: // query composite z-score value for entry "COCCOC(=O)N1C(=O)[C@@]2(c3ccccc31)[C@H](c1ccc(OCCO)cc1)N1[C@H](c3ccccc3)[C@H](c3ccccc3)OC(=O)[C@H]1[C@@H]2C(=O)NC[C@H](O)c1ccccc1"
Result: -0.0758

Task: // query composite z-score value for entry "C#CCOC(=O)N[C@H](C=CCCCC)c1ccccc1"
Result: -0.0888

Task: // query composite z-score value for entry "CCCC=C(CCC)[C@@H](NS(=O)(=O)c1ccccc1)c1ccc(C(F)(F)F)cc1"
Result: 0.0495

Task: // query composite z-score value for entry "CN(C)C(=O)[C@@]1(CCC(=O)OC(C)(C)C)COC(c2ccc(OCCCO)cc2)=N1"
Result: -0.127

Task: // query composite z-score value for entry "COC(=O)C(CC#Cc1ccc2c(c1)[C@]1(C(=O)N2)[C@H](c2ccccc2OCCO)N2[C@H](c3ccccc3)[C@H](c3ccccc3)OC(=O)[C@H]2[C@@H]1C(=O)Nc1nc2ccccc2s1)C(=O)OC"
Result: -0.0239

Task: // query composite z-score value for entry "O=C1O[C@H](c2ccccc2)[C@H](c2ccccc2)N2[C@H]1[C@@H](C(=O)N1CCN(c3ncccn3)CC1)[C@]1(C(=O)Nc3ccc(C#CCCO)cc31)[C@H]2c1ccccc1OCCO"
Result: -0.091

Task: // query composite z-score value for entry "COc1ccc(C(=O)Nc2ccc(CN3C(=O)[C@@]4(O[C@@H](CC(=O)N5Cc6ccccc6C[C@H]5CO)[C@H]([Si](C)(C)c5ccc(OC)cc5)[C@H]4C)c4ccccc43)cc2)cc1"
Result: -0.119

Task: // query composite z-score value for entry "C=CC[C@@]1(C(=O)NCCN2CCOCC2)N=C(c2ccc(OCCCO)cc2)O[C@@H]1c1ccccc1"
Result: 0.0873

Task: // query composite z-score value for entry "CC(C)C[C@@H]1NC(=O)[C@@H]2C[C@H](C(=O)NCCCC[N+](C)(C)C)[C@H](c3cccc(OCCO)c3)N2C1=O"
Result: -0.0236

Task: // query composite z-score value for entry "CCC[C@@H]1C[C@@]1(CCC)[C@@H](NC(=O)c1ccco1)c1ccc(Cl)cc1"
Result: -0.252

Task: // query composite z-score value for entry CC(C)c1ccc(NN2C(C(O)c3cccs3)C=CC3C(=O)N(c4ccccc4)C(=O)C32)cc1 (stereo not drawn)
Result: 0.0364

Task: // query composite z-score value for entry CCN(CC)c1ccc(N2CC=CC34O[C@@H]5/C=C\CCCOC(=O)C5[C@H]3C(=O)N(CCCCCCO)[C@@H]4C2=O)cc1 (stereo partly drawn)
Result: -0.139

Task: // query composite z-score value for entry "CCCCCCC#C[Si](O[C@H](c1ccccc1)c1cn(Cc2cccc(Cl)c2)nn1)(C(C)C)C(C)C"
Result: -0.124

Task: // query composite z-score value for entry "C=CCOc1ccc([C@@H]2CC=C(C(=O)OCC)[C@H](c3cccc(Br)c3)N2S(=O)(=O)c2ccc(C)cc2)cc1"
Result: -0.0944

---

# System Under Test: NADPH oxidase 2 (Homo sapiens) (UniProt P04839)
# Sequence (P04839 whole entry, looked up): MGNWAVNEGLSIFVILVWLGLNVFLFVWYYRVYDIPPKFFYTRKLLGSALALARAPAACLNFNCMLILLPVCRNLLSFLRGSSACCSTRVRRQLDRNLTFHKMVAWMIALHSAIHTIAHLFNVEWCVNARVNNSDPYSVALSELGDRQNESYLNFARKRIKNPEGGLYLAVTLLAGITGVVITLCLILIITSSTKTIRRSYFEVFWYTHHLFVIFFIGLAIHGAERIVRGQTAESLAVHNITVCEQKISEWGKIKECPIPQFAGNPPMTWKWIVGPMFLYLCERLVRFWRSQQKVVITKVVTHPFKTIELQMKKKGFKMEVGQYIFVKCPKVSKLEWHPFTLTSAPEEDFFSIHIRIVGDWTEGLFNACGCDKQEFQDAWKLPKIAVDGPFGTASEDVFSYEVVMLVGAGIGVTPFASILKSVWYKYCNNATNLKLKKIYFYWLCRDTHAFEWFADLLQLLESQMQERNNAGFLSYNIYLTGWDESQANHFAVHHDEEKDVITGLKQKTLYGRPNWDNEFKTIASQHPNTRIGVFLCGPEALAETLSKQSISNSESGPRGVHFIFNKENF
# Protocol Notes: compounds shifting NOX2 Amplex Red fluorescence – cell-based, HEK293-NOX2, PMA-stimulated, NOX inhibitor project, primary screen (AID 1159); note: test concentration not given here
# Details: 45 min, higher = more signal, called active from +8 up or from −8 down
Catalogue of compounds with associated z-score
Could you respond with only the numeric value?

Compound	Readout Number
C=C(C)[C@@H]1CC=C(C(O)C2C=CC3C(=O)N(C4CCCCC4)C(=O)C3N2Nc2ccc(OC)cc2)CC1 (stereo partly drawn)	0.191
O=C1O[C@H](c2ccccc2)[C@H](c2ccccc2)N2[C@H]1[C@@H](C(=O)N1CCCCCCC1)[C@]1(C(=O)Nc3ccccc31)[C@H]2c1ccc(O)cc1	-4.42
COCCOC(=O)N1C(=O)[C@@]2(c3cc(C#Cc4ccc(OC)cc4)ccc31)[C@H](C(=O)N1CCc3cc(OC)c(OC)cc3C1)[C@H]1C(=O)O[C@H](c3ccccc3)[C@H](c3ccccc3)N1[C@@H]2c1ccc(O)cc1	0.987
C[N+](C)(C)CCCC[C@@H]1NC(=O)[C@@H]2C[C@H](C(=O)O)[C@H](c3cccc(OCCO)c3)N2C1=O	1.83
NC(=O)[C@H]1[C@@H]2C(=O)O[C@@H](c3ccccc3)[C@@H](c3ccccc3)N2[C@@H](c2ccc(O)cc2)[C@]12C(=O)Nc1ccc(C#CC3(O)CCCCCC3)cc12	0.487
CC(C)=CCCC(C)=CC(O)C1C=CC2C(=O)N(c3ccccc3)C(=O)C2N1Nc1ccc([N+](=O)[O-])cc1 (stereo not drawn)	-0.381
CC1C=C(CCCO)C=C(C(=O)OCCS(C)(=O)=O)C(C(=O)OCCS(C)(=O)=O)=CN1Cc1cccc(OC(F)(F)F)c1 (stereo not drawn)	-1.97
COc1ccc([Si](C)(C)[C@H]2[C@H](CC(=O)N3CCC[C@H]3CO)O[C@@]3(C(=O)N(Cc4ccc(N5C(=O)c6cccc7cccc5c67)cc4)c4ccccc43)[C@@H]2C)cc1	1.86
CC(C)C[C@@H]1NC(=O)[C@@H]2C[C@H](C(=O)NCc3ccc(F)cc3)[C@H](c3ccc(O)cc3)N2C1=O	0.468
C=CCC(OC(C)=O)[C@@H]1[C@@H](N(Cc2ccc(-c3ccccc3)cc2)C(=O)Cc2ccc(OC)cc2)c2cc(OCCCO)ccc2N1C(=O)c1ccc(-c2ccccc2)cc1 (stereo partly drawn)	0.713

Task: // query z-score value for entry "COCCCNC(=O)[C@@]1(Cc2ccccc2)COC(c2ccc(OCCCO)cc2)=N1"
Result: -1.25

---

Catalogue of molecules with associated composite z-score
# System Under Test: Torsin-1A-interacting protein 2 (Homo sapiens) (UniProt Q8NFQ8)
# Sequence (Q8NFQ8 whole entry, looked up): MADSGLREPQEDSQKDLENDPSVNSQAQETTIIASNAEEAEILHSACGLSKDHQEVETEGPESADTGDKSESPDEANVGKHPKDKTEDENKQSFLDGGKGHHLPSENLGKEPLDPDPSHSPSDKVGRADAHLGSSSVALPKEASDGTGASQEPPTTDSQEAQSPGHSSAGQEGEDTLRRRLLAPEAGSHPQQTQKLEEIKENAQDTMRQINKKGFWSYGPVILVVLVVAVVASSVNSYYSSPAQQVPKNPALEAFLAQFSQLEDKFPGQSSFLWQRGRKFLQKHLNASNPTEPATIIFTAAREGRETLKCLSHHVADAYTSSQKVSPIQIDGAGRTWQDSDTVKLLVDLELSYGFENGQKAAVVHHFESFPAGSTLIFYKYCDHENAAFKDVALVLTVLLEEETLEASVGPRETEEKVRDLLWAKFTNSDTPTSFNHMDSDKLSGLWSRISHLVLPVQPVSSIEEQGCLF
# Protocol Notes: small molecules binding lysate-expressed LULL1 – cell lysate, human LULL1 lysate, 635/667 nm fluorescence, primary screen (AID 1092);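 note: probe is lysate of COS7 cells overexpressing human LULL1; score merges per-feature 667 nm fluorescence with signal-to-noise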
# Details: small-molecule microarray, hLULL1 lysate binding, 635 nm fluorescence; higher = more signal
Could you respond with only the numeric value?

Below, 3 molecules whose answers are already recorded.
Molecule	System Under Test	Readout Number
COC(=O)C(CC#Cc1ccc2c(c1)[C@]1(C(=O)N2)[C@H](c2ccc(OCCO)cc2)N2[C@H](c3ccccc3)[C@H](c3ccccc3)OC(=O)[C@H]2[C@@H]1C(=O)O)C(=O)OC	Torsin-1A-interacting protein 2 (Homo sapiens) (UniProt Q8NFQ8)	3.1
CC(C)C[C@@H]1NC(=O)[C@@]23C(=O)N[C@@H](Cc4ccccc4)C2[C@H](C)[C@@]2(C)O[C@H]2C3/C=C/C/C=C\CNC(=O)[C@@H]2CCCN2C1=O (stereo partly specified)	Torsin-1A-interacting protein 2 (Homo sapiens) (UniProt Q8NFQ8)	0.0315
COCCOC(=O)N1C(=O)[C@@]2(c3cc(C#CC4(O)CCCCCC4)ccc31)[C@H](C(=O)NC[C@H](O)c1ccccc1)[C@H]1C(=O)O[C@H](c3ccccc3)[C@H](c3ccccc3)N1[C@@H]2c1ccc(OCCO)cc1	Torsin-1A-interacting protein 2 (Homo sapiens) (UniProt Q8NFQ8)	2.33

Task: Query for Torsin-1A-interacting protein 2 (Homo sapiens) (UniProt Q8NFQ8): what composite z-score does the record show for "CCOC(=O)C[C@H]1[C@H](OC(=O)Cc2ccc3c(c2)OCO3)[C@@H](NC(=O)c2ccccc2)c2cc(OCCCO)ccc2N1C(=O)c1ccccc1" ?
Result: 1.27

Task: Query for Torsin-1A-interacting protein 2 (Homo sapiens) (UniProt Q8NFQ8): what composite z-score does the record show for "COc1ccc([Si](C)(C)[C@@H]2[C@@H](CC(=O)N3Cc4ccccc4C[C@H]3CO)O[C@]3(C(=O)N(Cc4cccc(N5CCCCC5=O)c4)c4ccccc43)[C@H]2C)cc1" ?
Result: 1.79

Task: Query for Torsin-1A-interacting protein 2 (Homo sapiens) (UniProt Q8NFQ8): what composite z-score does the record show for "COc1ccc(C#Cc2ccc3c(c2)[C@]2(C(=O)N3)[C@H](C(N)=O)[C@H]3C(=O)O[C@H](c4ccccc4)[C@H](c4ccccc4)N3[C@@H]2c2ccc(O)cc2)cc1" ?
Result: 2.94

Task: Query for Torsin-1A-interacting protein 2 (Homo sapiens) (UniProt Q8NFQ8): what composite z-score does the record show for "Cc1ccc(S[C@]2(C(=O)NCc3ccccc3)CC(=O)N(C3Cc4ccccc4C3)[C@@H]2c2ccc(CO)cc2I)cc1" ?
Result: 2.11
